experiment: protein stability index of a GFP-peptide fusion (GPS, HEK-293T) (PSI 1-6); higher = more stable;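 further: 24-mer peptide tiles fused after GFP, lentivirally expressed, FACS-sorted into six equal bins by GFP/DsRed ratio, decoded by Illumina sequencing, PSI is the read-weighted mean bin number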
measurement parameters: treatment: DMSO; c terminus: a fixed tail appended
This listing pairs sequences with measured protein stability index.
Lab note: jot the number down without any unit.

Solved entries (count: 5):
[[record]]
biopolymer_sequence = "GECRQMSSSSQIGNDSFQLQVTED [CLCN6]"
measured_number = 5.06

[[record]]
biopolymer_sequence = "SYDELCFLEQRPQSPTLEFLLRNS [EDARADD]"
measured_number = 3.1

[[record]]
biopolymer_sequence = "GPFDQGSPFAQELLDDGQQASPYH [ELF3]"
measured_number = 5.16

[[record]]
biopolymer_sequence = "LCPLCGKNFSNNSNLIRHQRIHAA [ZNF263]"
measured_number = 3.97

[[record]]
biopolymer_sequence = "FLLFLLTGIVSVAFLLLPLPDELG [MOSPD3]"
measured_number = 3.36


# protein stability index (sequence: TEDVNTLDSEKRTPLHVAAFLGDA [ANKRD44] ) is 4.72

# protein stability index (sequence: GKVQDIKAREKDGKGRTASPINSP [FSD1] ) is 4.99

# protein stability index (sequence: AACTRALESSEELLETANQTLQAM [FSD1] ) is 5.14

# protein stability index (sequence: GKLSWGTMARALGRFKLSIPHTHL [WDR88] ) is 2.31

# protein stability index (sequence: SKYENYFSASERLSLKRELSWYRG [HESX1] ) is 2.44

# protein stability index (sequence: SPSPSSRVTVSRASSSRSVRTTRG [LMNB1] ) is 5.08

====

This listing pairs sequences with measured protein stability index.
experiment: protein stability index of a GFP-peptide fusion (GPS, HEK-293T) (PSI 1-6); higher = more stable
measurement parameters: treatment: DMSO; c terminus: a fixed tail appended
Lab note: jot the number down without any unit.

[[record]]
biopolymer_sequence = "SLDKRQGEGLRIYWGSPEEQSLLS [TPRG1]"
observed_property = "protein stability index"
measured_number = 2.77

[[record]]
biopolymer_sequence = "CEVMQEIVDQVLEEDFDSEQLSVL [INTS3]"
observed_property = "protein stability index"
measured_number = 5.06


# protein stability index (sequence: GEDIPEKIKDEVHPEVKCVGSVAL [C8orf76] ) is 4.84

# protein stability index (sequence: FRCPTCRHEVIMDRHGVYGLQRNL [TRIM63] ) is 2.31

# protein stability index (sequence: STPRCAQQAALPRLSRRMASQHSY [CBY2] ) is 2.3

# protein stability index (sequence: LESSEELLETANQTLQAMDSEDFP [FSD1] ) is 5.4

# protein stability index (sequence: DNDPSCVHPIIKRRQCRPEIRMWQ [PHTF1] ) is 2.54

# protein stability index (sequence: SGTGKKEKEKKNRKGKDKENGSVS [EIF5] ) is 5.36

====

experiment: protein stability index of a GFP-peptide fusion (GPS, HEK-293T) (PSI 1-6); higher = more stable
measurement parameters: treatment: MLN4924 1 uM, 8 h; c terminus: a fixed tail appended
Record yes whenever protein stability index is at 3 or higher; record no when lower.

Does KSENARLVVQIDNAKLAADDFRTK [KRT33B] have a reported protein stability index of at least 3?
yes

====

experiment: protein stability index of a GFP-peptide fusion (GPS, HEK-293T) (PSI 1-6); higher = more stable
measurement parameters: treatment: DMSO; c terminus: a fixed tail appended
Record class 1 whenever protein stability index is at 3 or higher; record class 0 when lower.

[[record]]
biopolymer_sequence = "TVPKNDADDESETPEELEEEIPVV [GLT8D2]"
cat = "class 1"

[[record]]
biopolymer_sequence = "NNFSPLHLAVDKNTTCVGRYPVCK [FEM1C]"
cat = "class 1"

[[record]]
biopolymer_sequence = "AKDYADSIHAIFVETSAKNAININ [RAB22A]"
cat = "class 0"

[[record]]
biopolymer_sequence = "EGCTGALHILARDVHNRIVIRGLN [CTNNB1]"
cat = "class 0"

[[record]]
biopolymer_sequence = "GMLCSFRIPGAWSCAWSLNIQANN [DCAF4]"
cat = "class 0"


Does AQFHCAYQLADWCLHHICTNYNNV [RHOBTB2] have a reported protein stability index of at least 3?
class 1

Does GNGALSNISDLPFLAENSAFPKMA [LCOR] have a reported protein stability index of at least 3?
class 1

Does DFSGLTLDGALRTFLKAFPLMGET [PSD2] have a reported protein stability index of at least 3?
class 0

Does LVNPTCQVLVKDFTFEGFSRLRFL [ZER1] have a reported protein stability index of at least 3?
class 0

Does LKPLCGCHSFAAAADGPTVCCNPY [SMAD6] have a reported protein stability index of at least 3?
class 0

Does GTPSLLRGKRGGHATNYRIVAPRS [EMID1] have a reported protein stability index of at least 3?
class 1

Does VTYMNMTAYNKGRLQSSFWIVDKQ [PLD5] have a reported protein stability index of at least 3?
class 0

Does DEAKAPHWTSAPLTEASAHSHPPE [MAP2] have a reported protein stability index of at least 3?
class 1

Does CGFGGGAGSVFGGGFGGGVGGGFG [KRT15] have a reported protein stability index of at least 3?
class 0

Does VRSLRGEEPVPRERDRDPCGGSGG [LURAP1L] have a reported protein stability index of at least 3?
class 1

Does KPVLAKDSSNPYPNFNFNISHQGD [AASDHPPT] have a reported protein stability index of at least 3?
class 1

Does GRVLRKLPFLAHALYVQAPTVTIE [TRIP13] have a reported protein stability index of at least 3?
class 0

Does GADPDSRDFDNNTPLHIAAQNNCP [FEM1A] have a reported protein stability index of at least 3?
class 1

Does AAALLSNTTCQTENRLSVFFSVIF [PTGFR] have a reported protein stability index of at least 3?
class 0

Does KVLFALCALNALTTTVCLVAAALR [FAM189A2] have a reported protein stability index of at least 3?
class 1

====

experiment: protein stability index of a GFP-peptide fusion (GPS, HEK-293T) (PSI 1-6); higher = more stable
measurement parameters: treatment: MLN4924 1 uM, 8 h; c terminus: a fixed tail appended
This listing pairs sequences with measured protein stability index.
Lab note: jot the number down without any unit.

Solved entries (count: 2):
[[record]]
biopolymer_sequence = "LNKPALQAQPLRTTSTLASSLPGH [EHMT1]"
measured_number = 3.91

[[record]]
biopolymer_sequence = "KTLLAIGGWNFSTQKFTDMVATAN [CHIT1]"
measured_number = 2.14


Shifting focus to the sequence that follows.
# protein stability index (sequence: ATGMEVGWYRPPFSRVVHLYRNGK [MOG] ) is 2.98

====

experiment: protein stability index of a GFP-peptide fusion (GPS, HEK-293T) (PSI 1-6); higher = more stable
measurement parameters: treatment: DMSO; c terminus: a fixed tail appended
This listing pairs sequences with measured protein stability index.

Solved entries (count: 4):
[[record]]
biopolymer_sequence = "LNFKAEPESETSILLSWTPPRSDT [PTPRD]"
result = 3.3

[[record]]
biopolymer_sequence = "EYQVLLDVKARLEGEIATYRHLLE [KRT36]"
result = 2.54

[[record]]
biopolymer_sequence = "EDEEPQEPNRLETGEAGEELDLRL [RTN2]"
result = 5.73

[[record]]
biopolymer_sequence = "CGTPNYLSPEVLNKQGHGCESDIW [PLK2]"
result = 2.78


Shifting focus to the sequence that follows.
# protein stability index (sequence: ISIPITGDTLRTFSLVLVLDLSKP [DYNC2LI1] ) is 2.69

====

This listing pairs sequences with measured protein stability index.
experiment: protein stability index of a GFP-peptide fusion (GPS, HEK-293T) (PSI 1-6); higher = more stable
measurement parameters: treatment: DMSO; c terminus: a fixed tail appended
Lab note: jot the number down without any unit.

[[record]]
biopolymer_sequence = "RAASAMQFFTKGYQETISDVLNDA [GCH1]"
measured_number = 3.38

[[record]]
biopolymer_sequence = "TEGVTQLKLTVVEDVTVGRRQAVA [ZFYVE21]"
measured_number = 4.07

[[record]]
biopolymer_sequence = "ADNMLEYKSWLKNLAKEQLSRENI [PPEF2]"
measured_number = 3.61


# protein stability index (sequence: GPLLGTNGATDDSKTNLIVNYLPQ [ELAVL3] ) is 3.84

# protein stability index (sequence: RTYKQRFLFAKLFSHITSARKARK [PHTF1] ) is 2.17

====

experiment: protein stability index of a GFP-peptide fusion (GPS, HEK-293T) (PSI 1-6); higher = more stable
measurement parameters: treatment: DMSO; c terminus: a fixed tail appended
This listing pairs sequences with measured protein stability index.
Lab note: jot the number down without any unit.

Solved entries (count: 2):
[[record]]
biopolymer_sequence = "FGSQQSPIDVVEKYDPKTQEWSFL [KLHL12]"
observed_property = "protein stability index"
measured_number = 3.44

[[record]]
biopolymer_sequence = "KTLLAIGGWNFSTQKFTDMVATAN [CHIT1]"
observed_property = "protein stability index"
measured_number = 2.39


Shifting focus to the sequence that follows.
# protein stability index (sequence: RHDVIVSIVTAAKKDILLVNDHLL [PDS5B] ) is 2.51
